A collection of compounds and their measured z-score
- Assay details: adipocyte viability effects, profiling panel, cell-based, 3T3-L1 adipocytes, calcein-AM fluorescence, 48 h, basal (AID 1163); note: test concentration not given here
- Measurement context: 3T3-L1 adipocytes viability, higher = more signal

{"Compound": "COc1ccc(/C=C/C(=O)c2cccc(OCC(=O)OC(C)(C)C)c2)cc1", "z-score": 0.934}
{"Compound": "CC(C)CCC[C@@H](C)[C@H]1CC[C@@]2(C)C3=C(CC[C@]12C)[C@@]1(C)CC[C@H](OC(=O)CCl)C(C)(C)C1CC3 (stereo not given in full)", "z-score": 0.155}
{"Compound": "C=CCN1C(=O)[C@@]2(O[C@@H](CCn3cc(CCO)nn3)[C@H]([Si](C)(C)c3ccc(OC)cc3)[C@H]2C)c2cc(NC(=O)c3ccc(OC)cc3)ccc21", "z-score": 1.2}
{"Compound": "C=CCC(OC(C)=O)[C@@H]1[C@@H](N(Cc2cccc3ccccc23)C(=O)Cc2ccc(OC)cc2)c2cc(OCCCO)ccc2N1C(=O)Cc1ccc(OC)cc1 (stereo not given in full)", "z-score": 1.47}
{"Compound": "CO[C@H]1O[C@H](CO)[C@@H](OC(=O)Nc2ccccc2)[C@H](OC(=O)Nc2ccc3c(c2)OCO3)[C@H]1OC(=O)Nc1ccc2c(c1)OCO2", "z-score": 1.27}
{"Compound": "CC(C)[C@@H](C(=O)O)n1cc(-c2ccccn2)nn1", "z-score": 1.05}
{"Compound": "COc1ccc([Si](C)(C)[C@@H]2[C@@H](CC(=O)N3CCC[C@H]3CO)O[C@]3(C(=O)N(Cc4ccc(N5CCC5=O)cc4)c4ccccc43)[C@H]2C)cc1", "z-score": 0.592}
{"Compound": "CC(C)(C)OC(=O)CC[C@]1(C(=O)NCc2ccccc2)COC(c2ccc(OCCCO)cc2)=N1", "z-score": 0.978}
{"Compound": "COc1ccc([Si](C)(C)[C@@H]2[C@@H](CCn3cc(CCO)nn3)O[C@]3(C(=O)N(Cc4ccc(N5C(=O)c6cccc7cccc5c67)cc4)c4ccccc43)[C@H]2C)cc1", "z-score": 1.91}
{"Compound": "COc1ccc([Si](C)(C)[C@H]2[C@H](CC(=O)N(CCO)Cc3ccccc3)O[C@@]3(C(=O)N(Cc4ccc(N5CCC5=O)cc4)c4ccccc43)[C@@H]2C)cc1", "z-score": 0.816}
{"Compound": "CCCC[C@@H](O)C1=C(C)C[C@H]2C(=O)N(C)C(=O)[C@H]2[C@H]1CO", "z-score": -0.552}
{"Compound": "COCCCN1C(=O)[C@@]2(Cc3ccccc31)c1ccccc1C(=O)N(Cc1ccccc1Cl)[C@H]2c1ccc(CO)cc1", "z-score": -0.414}
{"Compound": "Cc1ccc(S[C@]2(C(=O)NC3CC3)CC(=O)N(Cc3ccccc3C(F)(F)F)[C@@H]2c2ccc(CO)cc2I)cc1", "z-score": 0.421}
{"Compound": "CCCCC(=C=CC[C@@H](O)c1ccc(OCCO)cc1)C[C@@H](O)c1cc(Cl)cc(Cl)c1O", "z-score": 1.37}
{"Compound": "CCCNC(=O)[C@@H]1c2ccccc2C(=O)N(Cc2cc(C(F)(F)F)cc(C(F)(F)F)c2)[C@H]1c1ccc(CO)cc1", "z-score": 1.6}
